Each recorded value in this set is attributed to paper PMC9457746.

targetEntity: hCA I (Homo sapiens, UniProt P00915)
Sequence (P00915 whole entry): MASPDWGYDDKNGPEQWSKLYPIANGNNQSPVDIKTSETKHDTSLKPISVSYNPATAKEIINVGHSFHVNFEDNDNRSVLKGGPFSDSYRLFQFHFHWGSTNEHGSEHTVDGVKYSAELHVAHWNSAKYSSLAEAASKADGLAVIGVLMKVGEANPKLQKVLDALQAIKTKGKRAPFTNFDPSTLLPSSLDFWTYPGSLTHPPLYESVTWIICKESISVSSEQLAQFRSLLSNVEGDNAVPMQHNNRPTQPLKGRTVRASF
assayProcedure: stopped flow CO2 hydrase assay, hCA I inhibition
pKi: −log10 of the molar value.
endpoint: pKi

COc1ccc(CNC(=O)NNC(=O)C2CCN(C(=O)c3ccc(S(N)(=O)=O)cc3)CC2)cc1 [Compound 5u] ... 6.89
NS(=O)(=O)c1ccc(C(=O)N2CCC(C(=O)NNC(=S)NCc3ccccc3)CC2)cc1 [Compound 6v] ... 6.70
Cc1ccc(NC(=O)NNC(=O)C2CCN(C(=O)c3ccc(S(N)(=O)=O)cc3)CC2)cc1 [Compound 5l] ... 7.09

a = NS(=O)(=O)c1ccc(C(=O)N2CCC(C(=O)NNC(=O)Nc3cccc(F)c3)CC2)cc1 [Compound 5g]
b = NS(=O)(=O)c1ccc(C(=O)N2CCC(C(=O)NNC(=S)Nc3ccc(Cl)c(Cl)c3)CC2)cc1 [Compound 6g]
Would you mind telling me which has the lower recorded pKi between a and b ? Respond with the label that goes with your answer. b

###

targetEntity: hCA I (Homo sapiens, UniProt P00915)
assayProcedure: stopped flow CO2 hydrase assay, hCA I inhibition
pKi: −log10 of the molar value.
endpoint: pKi

Guide cases for pKi, answers given:
NS(=O)(=O)c1ccc(C(=O)N2CCC(C(=O)NNC(=S)Nc3ccc(F)cc3)CC2)cc1 ... 7.10
COc1ccccc1NC(=S)NNC(=O)C1CCN(C(=O)c2ccc(S(N)(=O)=O)cc2)CC1 ... 6.80
COc1cc(NC(=S)NNC(=O)C2CCN(C(=O)c3ccc(S(N)(=O)=O)cc3)CC2)cc(OC)c1OC ... 6.37
NS(=O)(=O)c1ccc(C(=O)N2CCC(C(=O)NNC(=O)Nc3cccc(Cl)c3)CC2)cc1 ... 6.66
NS(=O)(=O)c1ccc(C(=O)N2CCC(C(=O)NNC(=S)Nc3ccccc3Cl)CC2)cc1 ... 6.76

a = NS(=O)(=O)c1ccc(C(=O)N2CCC(C(=O)NNC(=S)NC3CCCCC3)CC2)cc1
b = NS(=O)(=O)c1ccc(C(=O)N2CCC(C(=O)NNC(=S)Nc3cccc(F)c3)CC2)cc1
c = NS(=O)(=O)c1ccc(C(=O)N2CCC(C(=O)NNC(=S)Nc3ccc([N+](=O)[O-])cc3)CC2)cc1
Descending sort on pKi required. List the labels according to the requested ordering. a, c, b

###

targetEntity: hCA IX (Homo sapiens, UniProt Q16790)
assayProcedure: stopped flow CO2 hydrase assay, hCA IX inhibition
pKi: −log10 of the molar value.
endpoint: pKi

I = NS(=O)(=O)c1ccc(C(=O)N2CCC(C(=O)NNC(=S)Nc3ccc(Cl)cc3)CC2)cc1
II = NS(=O)(=O)c1ccc(C(=O)N2CCC(C(=O)NNC(=O)Nc3cccc(F)c3)CC2)cc1
Which value of pKi is greater, the one for I or the one for II ? Respond with the label that goes with your answer. I
(I: 7.58, II: 7.05)

###

targetEntity: hCA XII (Homo sapiens)
assayProcedure: stopped flow CO2 hydrase assay, hCA XII inhibition
pKi: −log10 of the molar value.
endpoint: pKi

Guide cases for pKi, answers given:
NS(=O)(=O)c1ccc(C(=O)N2CCC(C(=O)NNC(=S)Nc3ccccc3Cl)CC2)cc1 [Compound 6d] ... 7.57
COc1ccccc1NC(=S)NNC(=O)C1CCN(C(=O)c2ccc(S(N)(=O)=O)cc2)CC1 [Compound 6j] ... 8.34
Cc1cccc(C)c1NC(=S)NNC(=O)C1CCN(C(=O)c2ccc(S(N)(=O)=O)cc2)CC1 [Compound 6u] ... 8.02
NS(=O)(=O)c1ccc(C(=O)N2CCC(C(=O)NNC(=S)NC3CCCCC3)CC2)cc1 [Compound 6y] ... 7.71
COc1ccc(CNC(=S)NNC(=O)C2CCN(C(=O)c3ccc(S(N)(=O)=O)cc3)CC2)cc1 [Compound 6w] ... 7.52
COc1cc(NC(=S)NNC(=O)C2CCN(C(=O)c3ccc(S(N)(=O)=O)cc3)CC2)cc(OC)c1OC [Compound 6m] ... 7.56
NS(=O)(=O)c1ccc(C(=O)N2CCC(C(=O)NNC(=O)Nc3ccccc3F)CC2)cc1 [Compound 5f] ... 8.08
NS(=O)(=O)c1ccc(C(=O)N2CCC(C(=O)NNC(=S)Nc3ccc(Cl)cc3)CC2)cc1 [Compound 6f] ... 7.75

1 = COc1cccc(NC(=S)NNC(=O)C2CCN(C(=O)c3ccc(S(N)(=O)=O)cc3)CC2)c1 [Compound 6k]
2 = Cc1cccc(C)c1NC(=O)NNC(=O)C1CCN(C(=O)c2ccc(S(N)(=O)=O)cc2)CC1 [Compound 5m]
Which value of pKi is greater, the one for 1 or the one for 2 ? Respond with the label that goes with your answer. 1

1 = NS(=O)(=O)c1ccc(C(=O)N2CCC(C(=O)NNC(=S)Nc3ccccc3)CC2)cc1 [Compound 6a]
2 = NS(=O)(=O)c1ccc(C(=O)N2CCC(C(=O)NNC(=S)Nc3ccc([N+](=O)[O-])cc3)CC2)cc1 [Compound 6b]
3 = COc1ccc(NC(=S)NNC(=O)C2CCN(C(=O)c3ccc(S(N)(=O)=O)cc3)CC2)cc1 [Compound 6l]
4 = NS(=O)(=O)c1ccc(C(=O)N2CCC(C(=O)NNC(=O)Nc3c(F)cccc3F)CC2)cc1 [Compound 5i]
Descending sort on pKi required. List the labels according to the requested ordering. 1, 4, 3, 2
(1: 8.49, 4: 7.90, 3: 7.56, 2: 7.35)

P = Cc1ccccc1NC(=O)NNC(=O)C1CCN(C(=O)c2ccc(S(N)(=O)=O)cc2)CC1 [Compound 5j]
Q = Cc1cccc(NC(=O)NNC(=O)C2CCN(C(=O)c3ccc(S(N)(=O)=O)cc3)CC2)c1 [Compound 5k]
Would you mind telling me which has the lower recorded pKi between P and Q ? Respond with the label that goes with your answer. P
(P: 7.22, Q: 7.81)

###

targetEntity: hCA XII (Homo sapiens, UniProt O43570)
Sequence (O43570 25-354): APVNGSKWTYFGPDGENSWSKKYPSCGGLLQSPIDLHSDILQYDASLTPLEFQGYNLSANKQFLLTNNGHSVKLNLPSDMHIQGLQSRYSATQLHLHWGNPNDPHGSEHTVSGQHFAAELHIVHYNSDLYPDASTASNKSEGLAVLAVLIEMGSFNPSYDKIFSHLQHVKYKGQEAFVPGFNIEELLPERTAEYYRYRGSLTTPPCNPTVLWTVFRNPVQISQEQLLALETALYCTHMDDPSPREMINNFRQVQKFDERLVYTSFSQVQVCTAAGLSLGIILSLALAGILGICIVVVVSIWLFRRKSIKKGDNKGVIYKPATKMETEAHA
assayProcedure: stopped flow CO2 hydrase assay, hCA XII inhibition
endpoint: Ki (nM)

Guide cases for Ki, answers given:
NS(=O)(=O)c1ccc(C(=O)N2CCC(C(=O)NNC(=S)Nc3ccc(Cl)cc3Cl)CC2)cc1 ... 2.6
NS(=O)(=O)c1ccc(C(=O)N2CCC(C(=O)NNC(=O)Nc3ccc(Cl)cc3)CC2)cc1 ... 101
Cc1cc(C)cc(NC(=O)NNC(=O)C2CCN(C(=O)c3ccc(S(N)(=O)=O)cc3)CC2)c1 ... 44.7
NS(=O)(=O)c1ccc(C(=O)N2CCC(C(=O)NNC(=O)Nc3ccccc3Cl)CC2)cc1 ... 13.6
NS(=O)(=O)c1ccc(C(=O)N2CCC(C(=O)NNC(=S)Nc3c(F)cccc3F)CC2)cc1 ... 5.6

I = NS(=O)(=O)c1ccc(C(=O)N2CCC(C(=O)NNC(=O)Nc3cccc(Cl)c3)CC2)cc1
II = Cc1ccccc1NC(=S)NNC(=O)C1CCN(C(=O)c2ccc(S(N)(=O)=O)cc2)CC1
Which value of Ki is greater, the one for I or the one for II ? Respond with the label that goes with your answer. I
(I: 44.6 nM, II: 18.4 nM)

###

targetEntity: hCA I (Homo sapiens)
assayProcedure: stopped flow CO2 hydrase assay, hCA I inhibition
pKi: −log10 of the molar value.
endpoint: pKi

Guide cases for pKi, answers given:
Cc1cccc(C)c1NC(=O)NNC(=O)C1CCN(C(=O)c2ccc(S(N)(=O)=O)cc2)CC1 ... 6.44
Cc1ccccc1NC(=S)NNC(=O)C1CCN(C(=O)c2ccc(S(N)(=O)=O)cc2)CC1 ... 6.56
NS(=O)(=O)c1ccc(C(=O)N2CCC(C(=O)NNC(=O)NCc3ccccc3)CC2)cc1 ... 7.11
COc1ccccc1NC(=O)NNC(=O)C1CCN(C(=O)c2ccc(S(N)(=O)=O)cc2)CC1 ... 6.35
COc1cccc(NC(=O)NNC(=O)C2CCN(C(=O)c3ccc(S(N)(=O)=O)cc3)CC2)c1 ... 6.55

1 = COc1ccc(CNC(=S)NNC(=O)C2CCN(C(=O)c3ccc(S(N)(=O)=O)cc3)CC2)cc1
2 = NS(=O)(=O)c1ccc(C(=O)N2CCC(C(=O)NNC(=S)Nc3c(Cl)cccc3Cl)CC2)cc1
Would you mind telling me which has the lower recorded pKi between 1 and 2 ? Respond with the label that goes with your answer. 2

###

targetEntity: UniProtKB P00915
assayProcedure: stopped flow CO2 hydrase assay, hCA I inhibition
pKi: −log10 of the molar value.
endpoint: pKi

COc1cccc(NC(=S)NNC(=O)C2CCN(C(=O)c3ccc(S(N)(=O)=O)cc3)CC2)c1 ... 6.84
Cc1cccc(NC(=O)NNC(=O)C2CCN(C(=O)c3ccc(S(N)(=O)=O)cc3)CC2)c1 ... 7.02
NS(=O)(=O)c1ccc(C(=O)N2CCC(C(=O)NNC(=O)Nc3ccccc3Cl)CC2)cc1 ... 6.79
NS(=O)(=O)c1ccc(C(=O)N2CCC(C(=O)NNC(=S)Nc3ccc(Cl)cc3)CC2)cc1 ... 6.88
